Biological target: S. aureus RNA polymerase core enzyme + S. aureus σA (Staphylococcus aureus, UniProt P47768+Q2G0N5)
Sequence (P0A0J0 whole entry): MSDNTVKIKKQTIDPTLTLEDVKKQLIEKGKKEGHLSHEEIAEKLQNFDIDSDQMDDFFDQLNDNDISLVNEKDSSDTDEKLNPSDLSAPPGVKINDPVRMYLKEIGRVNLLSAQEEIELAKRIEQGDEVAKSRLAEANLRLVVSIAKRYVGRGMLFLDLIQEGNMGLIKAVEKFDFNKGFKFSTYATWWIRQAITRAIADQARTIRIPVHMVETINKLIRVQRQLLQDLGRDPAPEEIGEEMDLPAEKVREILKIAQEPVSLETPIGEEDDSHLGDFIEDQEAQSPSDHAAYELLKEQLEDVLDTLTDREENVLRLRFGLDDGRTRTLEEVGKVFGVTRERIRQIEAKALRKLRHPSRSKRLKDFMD
Sequence (P47768 whole entry): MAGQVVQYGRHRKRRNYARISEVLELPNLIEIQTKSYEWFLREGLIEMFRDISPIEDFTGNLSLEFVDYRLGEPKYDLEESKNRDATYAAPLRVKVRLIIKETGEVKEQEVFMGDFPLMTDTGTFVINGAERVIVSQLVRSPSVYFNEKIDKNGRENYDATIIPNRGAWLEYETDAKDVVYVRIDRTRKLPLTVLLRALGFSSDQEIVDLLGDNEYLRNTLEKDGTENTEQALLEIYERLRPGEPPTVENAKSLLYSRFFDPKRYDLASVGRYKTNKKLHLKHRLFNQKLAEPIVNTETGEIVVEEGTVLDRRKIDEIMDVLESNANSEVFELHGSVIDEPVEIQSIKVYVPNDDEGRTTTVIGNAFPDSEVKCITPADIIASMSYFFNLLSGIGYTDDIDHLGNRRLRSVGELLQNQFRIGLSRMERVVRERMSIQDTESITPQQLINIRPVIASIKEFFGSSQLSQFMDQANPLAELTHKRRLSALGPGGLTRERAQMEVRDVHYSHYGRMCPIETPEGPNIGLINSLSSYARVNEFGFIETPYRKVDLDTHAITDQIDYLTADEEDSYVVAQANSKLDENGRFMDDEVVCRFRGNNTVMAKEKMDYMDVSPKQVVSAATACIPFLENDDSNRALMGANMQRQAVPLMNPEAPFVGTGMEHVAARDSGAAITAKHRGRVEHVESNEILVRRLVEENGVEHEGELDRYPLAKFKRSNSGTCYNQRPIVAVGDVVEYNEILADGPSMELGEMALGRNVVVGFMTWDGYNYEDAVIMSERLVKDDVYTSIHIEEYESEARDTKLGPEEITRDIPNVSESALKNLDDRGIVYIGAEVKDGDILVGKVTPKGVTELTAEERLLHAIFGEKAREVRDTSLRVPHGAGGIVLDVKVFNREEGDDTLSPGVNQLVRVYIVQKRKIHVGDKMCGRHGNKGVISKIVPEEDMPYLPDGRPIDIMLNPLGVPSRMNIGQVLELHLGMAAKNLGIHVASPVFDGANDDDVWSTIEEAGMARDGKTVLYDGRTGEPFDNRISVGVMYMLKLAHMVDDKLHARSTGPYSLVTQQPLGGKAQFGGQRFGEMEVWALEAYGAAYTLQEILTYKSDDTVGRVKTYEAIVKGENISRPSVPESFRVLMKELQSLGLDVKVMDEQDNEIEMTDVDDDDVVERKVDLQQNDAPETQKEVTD
Sequence (Q2G0N5 whole entry): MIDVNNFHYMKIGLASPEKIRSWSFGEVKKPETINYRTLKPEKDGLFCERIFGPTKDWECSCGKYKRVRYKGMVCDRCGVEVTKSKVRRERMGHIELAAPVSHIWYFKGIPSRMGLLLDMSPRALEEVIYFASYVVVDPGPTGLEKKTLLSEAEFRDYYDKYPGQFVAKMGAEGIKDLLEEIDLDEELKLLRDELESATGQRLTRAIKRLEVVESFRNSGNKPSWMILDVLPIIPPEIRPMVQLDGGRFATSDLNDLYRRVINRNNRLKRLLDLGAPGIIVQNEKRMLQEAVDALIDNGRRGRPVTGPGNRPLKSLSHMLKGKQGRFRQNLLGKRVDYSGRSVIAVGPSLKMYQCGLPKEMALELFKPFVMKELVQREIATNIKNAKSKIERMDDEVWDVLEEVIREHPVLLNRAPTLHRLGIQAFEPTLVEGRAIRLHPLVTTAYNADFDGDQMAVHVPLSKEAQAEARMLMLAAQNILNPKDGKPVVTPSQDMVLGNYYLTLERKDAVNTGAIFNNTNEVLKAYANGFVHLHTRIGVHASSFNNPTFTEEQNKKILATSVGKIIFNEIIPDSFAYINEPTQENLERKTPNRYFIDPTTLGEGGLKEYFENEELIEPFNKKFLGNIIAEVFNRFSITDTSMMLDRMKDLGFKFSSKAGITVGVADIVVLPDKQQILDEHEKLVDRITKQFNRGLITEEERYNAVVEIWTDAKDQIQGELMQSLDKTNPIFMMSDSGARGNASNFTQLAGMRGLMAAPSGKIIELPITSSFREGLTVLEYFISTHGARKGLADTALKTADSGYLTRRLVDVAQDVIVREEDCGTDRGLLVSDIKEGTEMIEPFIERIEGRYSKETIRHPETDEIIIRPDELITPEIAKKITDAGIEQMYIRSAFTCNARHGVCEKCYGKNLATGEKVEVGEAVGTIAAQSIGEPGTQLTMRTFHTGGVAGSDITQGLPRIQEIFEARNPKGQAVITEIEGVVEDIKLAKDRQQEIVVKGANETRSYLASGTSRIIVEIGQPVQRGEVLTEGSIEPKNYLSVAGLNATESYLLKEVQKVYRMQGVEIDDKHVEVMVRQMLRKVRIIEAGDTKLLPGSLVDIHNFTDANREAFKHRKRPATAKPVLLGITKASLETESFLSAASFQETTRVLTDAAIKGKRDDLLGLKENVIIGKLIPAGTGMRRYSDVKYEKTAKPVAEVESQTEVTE
Sequence (Q2FW32 whole entry, further chain): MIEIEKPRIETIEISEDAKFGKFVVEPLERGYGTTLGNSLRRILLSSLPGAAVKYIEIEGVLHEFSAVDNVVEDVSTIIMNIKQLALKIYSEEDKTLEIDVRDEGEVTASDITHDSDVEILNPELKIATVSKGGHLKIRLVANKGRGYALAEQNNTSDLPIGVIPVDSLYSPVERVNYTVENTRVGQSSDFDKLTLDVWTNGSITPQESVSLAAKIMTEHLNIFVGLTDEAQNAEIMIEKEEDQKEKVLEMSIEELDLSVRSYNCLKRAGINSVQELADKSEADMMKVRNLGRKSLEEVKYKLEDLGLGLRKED
Test: Fluorescence-detected assay of inhibition of Staphylococcus aureus RNA polymerase
Conditions: read-out: IC50 Sa RNAP
pIC50: −log10 of the molar value.

{"Substance smiles": "Cc1ccccc1CCC(=O)c1c(O)cc(O)cc1O", "pIC50": 5.10}
{"Substance smiles": "CCc1ccc(CCC(=O)c2c(O)cc(O)cc2O)cc1", "pIC50": 5.27}
{"Substance smiles": "O=C(CCc1ccc(C(F)(F)F)cc1)c1c(O)cc(O)cc1O", "pIC50": 5.32}
{"Substance smiles": "CC(C)(C)c1ccc(CCC(=O)c2c(O)cc(O)cc2O)cc1", "pIC50": 5.19}
{"Substance smiles": "COc1cccc(CCC(=O)c2c(O)cc(O)cc2O)c1", "pIC50": 5.14}
{"Substance smiles": "O=C(CCc1ccccc1Cl)c1c(O)cc(O)cc1O", "pIC50": 4.96}
{"Substance smiles": "O=C(CCc1ccc(F)cc1)c1c(O)cc(O)cc1O", "pIC50": 5.14}
{"Substance smiles": "COc1ccccc1CCC(=O)c1c(O)cc(O)cc1O", "pIC50": 5.14}
{"Substance smiles": "CC(C)c1ccc(CCC(=O)c2c(O)cc(O)cc2O)cc1", "pIC50": 5.27}
{"Substance smiles": "Cc1cc(F)ccc1CCC(=O)c1c(O)cc(O)cc1O", "pIC50": 5.39}
